Tested on: Streptococcus sp. 'group A'
assayMethodText: growth inhibition of control SK(-) GAS strain, dose response, counter-screen for streptokinase expression inhibitor project, luminescence, kanamycin, BacTiterGlo, confirmation (AID 1900)
Format: functional, organism-based
Active and inactive are the calls of the source. Rule as the data show it: actives have a measured EC50 and inactives only a lower limit.
The reader will find reported EC50 values listed item by item below.

Previously resolved entries follow.
{"compound": "Cc1ccc(CN2CC(C(=O)Nc3nnc(SCc4c(Cl)cccc4Cl)s3)CC2=O)cc1 (stereo unspecified)", "measuredAttribute": "EC50", "result": "4.07 µM (active)"}
{"compound": "Cc1cccc(C)c1OC1(c2ccccc2)OC(=O)c2ccccc21 (stereo unspecified)", "measuredAttribute": "EC50", "result": "18.4 µM (active)"}
{"compound": "COCCCN=C(S)NN=C(S)Nc1cccc(Cl)c1", "measuredAttribute": "EC50", "result": "> 150 µM (not active)"}

Query :: What measured EC50 is associated with "COc1ccc2nc(N3C(=O)CNC3=S)sc2c1" on Streptococcus sp. 'group A'?
Result :: 3.47 µM (active)

Query :: # get_value(readout= EC50, system= Streptococcus sp. 'group A') for "CC(C)COc1ccc(-c2nn(-c3ccccc3)cc2/C=C2/SC(=S)N(CC(=O)O)C2=O)cc1"
Result :: 2.85 µM (active)

Query :: Provide the documented EC50 with Streptococcus sp. 'group A' as the system for "Cc1csc(NC(=O)c2c(O)c3c(n(CC(C)C)c2=O)CCCC3)n1"
Result :: 11 µM (active)

Query :: Request: EC50, test system Streptococcus sp. 'group A', entry "C/C(=N\NC(=O)c1cc(Br)ccc1O)c1cccc(NC(=O)c2ccccc2F)c1"
Result :: 3.04 µM (active)

Query :: Lookup: EC50 / Streptococcus sp. 'group A' / C=C(C)C1Cc2c(C)nn(-c3cccc4ccccc34)c2C1 (stereo unspecified)
Result :: 7.08 µM (active)

Query :: For the record "Cc1cc(NC(=O)c2sccc2C)n(-c2nc3ccccc3[nH]2)n1" , what value of EC50 is listed for Streptococcus sp. 'group A'?
Result :: 3.9 µM (active)

Query :: Missing value: EC50, Streptococcus sp. 'group A', entry "COc1cccc(COC(=O)c2sc3nc4n(c(=O)c3c2C)CCC4)c1OC" . Fill in?
Result :: 1.6 µM (active)

Query :: What is its EC50 for Streptococcus sp. 'group A'? Entry: CC1(C)CC(=O)C2=C(C1)c1c(ccc3ccccc13)NC2c1cc([N+](=O)[O-])cc([N+](=O)[O-])c1O (stereo unspecified)
Result :: 4.43 µM (active)
